This collection of values is drawn from ChEMBL document CHEMBL1137090.

- target: HPr kinase/phosphorylase (Bacillus subtilis (strain 168), UniProt O34483)
- Sequence (O34483 whole entry): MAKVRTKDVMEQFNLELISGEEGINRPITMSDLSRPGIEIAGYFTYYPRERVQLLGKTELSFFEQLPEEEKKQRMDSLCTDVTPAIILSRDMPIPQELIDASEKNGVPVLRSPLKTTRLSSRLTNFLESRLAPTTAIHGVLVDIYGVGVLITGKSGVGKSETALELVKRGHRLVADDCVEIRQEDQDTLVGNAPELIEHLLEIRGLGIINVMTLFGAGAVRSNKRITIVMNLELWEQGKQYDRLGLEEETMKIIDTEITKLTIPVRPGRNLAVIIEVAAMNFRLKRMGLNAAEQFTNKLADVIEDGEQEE
- assay_procedure: Inhibition of histidine containing protein in kinase assay with ADP
assay_endpoint: pEC50
Remember the convention: pEC50 equals -log10 of concentration in molar.

Input `Nc1n(Cc2ccccc2)c2ccccc2[n+]1CCCCCCCCCCCC[n+]1c(N)n(Cc2ccccc2)c2ccccc21.Nc1ncnc2c1ncn2[C@@H]1O[C@H](COP(=O)(O)OP(=O)(O)O)[C@@H](O)[C@H]1O` , output reported pEC50.
5.28

* * *

- assay_procedure: Hill slope for the compound was measured for inhibition of Crh kinase assay
assay_endpoint: Activity
Answer with the value's number alone.

Fill in Activity for record Nc1ncnc2c1ncn2[C@@H]1O[C@H](COP(=O)(O)OP(=O)(O)O)[C@@H](O)[C@H]1O [ADENOSINE DIPHOSPHATE]
1.4

For `Nc1n(Cc2ccccc2)c2ccccc2[n+]1CCCCCCCC[n+]1c(N)n(Cc2ccccc2)c2ccccc21` , write its Activity.
2.2

State, in one line, measured Activity of `CCCCCCCCCCCC[n+]1c(N)n(Cc2ccccc2)c2ccccc21`
6.4

Please look at this compound and report its Activity: `Nc1n(Cc2ccccc2)c2ccccc2[n+]1CCCCCCCCCCCC[n+]1c(N)n(Cc2ccccc2)c2ccccc21.Nc1ncnc2c1ncn2[C@@H]1O[C@H](COP(=O)(O)OP(=O)(O)O)[C@@H](O)[C@H]1O`
2.4

Please report the measured Activity for `Nc1n(Cc2ccccc2)c2ccccc2[n+]1CCCCC[n+]1c(N)n(Cc2ccccc2)c2ccccc21`
1.3

* * *

- assay_procedure: Hill slope for the compound was measured for inhibition of histidine containing protein kinase assay
assay_endpoint: Activity
Note: the reply should be a number with no unit written.

Please list Activity recorded for the compound `Nc1n(Cc2ccccc2)c2ccccc2[n+]1CCCCCCCCCCCC[n+]1c(N)n(Cc2ccccc2)c2ccccc21.Nc1ncnc2c1ncn2[C@@H]1O[C@H](COP(=O)(O)OP(=O)(O)O)[C@@H](O)[C@H]1O`
1.8

Using known records, supply Activity for `Nc1n(Cc2ccccc2)c2ccccc2[n+]1CCCCC[n+]1c(N)n(Cc2ccccc2)c2ccccc21`
1.3

Indicate its recorded Activity; the compound in question is Nc1ncnc2c1ncn2[C@@H]1O[C@H](COP(=O)(O)OP(=O)(O)O)[C@@H](O)[C@H]1O [ADENOSINE DIPHOSPHATE]
0.9

Answer with the recorded Activity of `CCCCCCCCCCCC[n+]1c(N)n(Cc2ccccc2)c2ccccc21` only.
5.3

Read off the recorded Activity for `Nc1n(Cc2ccccc2)c2ccccc2[n+]1CCCCCCCC[n+]1c(N)n(Cc2ccccc2)c2ccccc21`
1.1

* * *

For each record, write down the corresponding EC50.
- target: HPr kinase/phosphorylase (Bacillus subtilis (strain 168), UniProt O34483)
- assay_procedure: Inhibition of histidine containing protein in kinase assay
A number alone suffices; assume µM.

Give the reported EC50 for this compound. `Nc1n(Cc2ccccc2)c2ccccc2[n+]1CCCCCCCC[n+]1c(N)n(Cc2ccccc2)c2ccccc21`
20

Provide one value: measured EC50 of `CCCCCCCCCCCC[n+]1c(N)n(Cc2ccccc2)c2ccccc21`
29

Please indicate EC50 recorded for `Nc1n(Cc2ccccc2)c2ccccc2[n+]1CCCCC[n+]1c(N)n(Cc2ccccc2)c2ccccc21`
93

Read off the recorded EC50 for `Nc1n(Cc2ccccc2)c2ccccc2[n+]1CCCCCCCCCCCC[n+]1c(N)n(Cc2ccccc2)c2ccccc21.Nc1ncnc2c1ncn2[C@@H]1O[C@H](COP(=O)(O)OP(=O)(O)O)[C@@H](O)[C@H]1O`
10

Give the measured EC50 for Nc1ncnc2c1ncn2[C@@H]1O[C@H](COP(=O)(O)OP(=O)(O)O)[C@@H](O)[C@H]1O [ADENOSINE DIPHOSPHATE]
4300

* * *

- target: HPr kinase/phosphorylase (Bacillus subtilis (strain 168)) (UniProt O34483)
- Sequence (whole entry): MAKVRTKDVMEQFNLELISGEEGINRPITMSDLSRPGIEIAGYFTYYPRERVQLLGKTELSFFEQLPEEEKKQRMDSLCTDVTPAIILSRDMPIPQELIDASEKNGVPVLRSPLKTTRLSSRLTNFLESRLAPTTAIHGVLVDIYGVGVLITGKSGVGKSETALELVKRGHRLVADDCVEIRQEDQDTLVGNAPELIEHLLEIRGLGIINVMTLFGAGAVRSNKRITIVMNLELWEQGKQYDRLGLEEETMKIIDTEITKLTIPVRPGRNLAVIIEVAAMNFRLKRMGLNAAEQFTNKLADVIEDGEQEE
- assay_procedure: Percent inhibition of Histidine containing protein K in kinase assay with histidine containing protein at 100 uM
assay_endpoint: inhibition (%)
Your answer should be a plain number; it is taken to be in %.

// Input: `Nc1n(Cc2ccccc2)c2ccccc2[n+]1CCCCCCCCCCCCN1CCN(c2ccccc2)CC1` . Output its inhibition only.
96

Give the reported value of inhibition for this record: `Nc1n(Cc2ccccc2)c2ccccc2[n+]1CCCCCCCCCCCCN1C(=O)c2ccccc2C1=O`
97

Specify inhibition for `Nc1n(Cc2ccccc2)c2ccccc2[n+]1CCCCCCCCCCCCNc1ccccc1` and stop.
96

Please indicate inhibition recorded for `CNC(=O)C[n+]1c(N)n(Cc2ccccc2)c2ccccc21`
7

Fill in reported inhibition for this entry: `CC(C)(C)OC(=O)NCCCCCC[n+]1c(N)n(Cc2ccccc2)c2ccccc21`
14

Respond only with inhibition recorded for `Nc1n(Cc2ccccc2)c2ccccc2[n+]1Cc1ccccc1`
33

Supply recorded inhibition for `Nc1n(Cc2ccccc2)c2ccccc2[n+]1CCCCCCCCCCCCNCc1ccccc1` here.
96

Output inhibition of `CC(C)(C)OC(=O)NCCCCCCCCCCC[n+]1c(N)n(Cc2ccccc2)c2ccccc21`
96

Query inhibition for `CC(C)(C)OC(=O)NCCC[n+]1c(N)n(Cc2ccccc2)c2ccccc21`
12

Please give measured inhibition of the following entry: `NCCC[n+]1c(N)n(Cc2ccccc2)c2ccccc21`
24

Please give the documented inhibition of `Nc1n(Cc2ccccc2)c2ccccc2[n+]1CCCCCCCCCCC(=O)[O-]`
39

Look up inhibition of `Nc1n(Cc2ccccc2)c2ccccc2[n+]1CCCCCC(=O)[O-]` and report it.
10

Please report inhibition for the following compound: `Nc1n(Cc2ccccc2)c2ccccc2[n+]1CCCCCCCCCCCCN1CCOCC1`
90

* * *

- target: HPr kinase/phosphorylase (Bacillus subtilis (strain 168), UniProt O34483)
- assay_procedure: Inhibition of histidine containing protein in phosphatase assay
assay_endpoint: EC50 (µM)
// return numeric value only (unit: µM, not printed)

Input `Nc1n(Cc2ccccc2)c2ccccc2[n+]1CCCCCCCCCCCC[n+]1c(N)n(Cc2ccccc2)c2ccccc21.Nc1ncnc2c1ncn2[C@@H]1O[C@H](COP(=O)(O)OP(=O)(O)O)[C@@H](O)[C@H]1O` , output reported EC50.
16

* * *

- target: HPr kinase/phosphorylase (Bacillus subtilis) (UniProt O34483)
- assay_procedure: Effective concentration for inhibition of HPr kinase/phosphorylase in kinase assay
Please respond with reported EC50 for every item in the list.
Express the result in µM but write the number alone.

Fill in reported EC50 for this entry: `Nc1n(Cc2ccccc2)c2ccccc2[n+]1CCCCCCCCCCCC[n+]1c(N)n(Cc2ccccc2)c2ccccc21.Nc1ncnc2c1ncn2[C@@H]1O[C@H](COP(=O)(O)OP(=O)(O)O)[C@@H](O)[C@H]1O`
21

Give recorded EC50. `Nc1n(Cc2ccccc2)c2ccccc2[n+]1CCCCC[n+]1c(N)n(Cc2ccccc2)c2ccccc21`
210

Please supply the value of reported EC50 for the item Nc1ncnc2c1ncn2[C@@H]1O[C@H](COP(=O)(O)OP(=O)(O)O)[C@@H](O)[C@H]1O [ADENOSINE DIPHOSPHATE]
7400

Return EC50 for the following compound: `CCCCCCCCCCCC[n+]1c(N)n(Cc2ccccc2)c2ccccc21`
32

Report measured EC50; entry is `Nc1n(Cc2ccccc2)c2ccccc2[n+]1CCCCCCCC[n+]1c(N)n(Cc2ccccc2)c2ccccc21`
71

* * *

For each of the compounds below, state its inhibition.
- target: HPr kinase/phosphorylase (Bacillus subtilis (strain 168)) (UniProt O34483)
- assay_procedure: Percent inhibition of Histidine containing protein K in kinase assay with histidine containing protein at 10 uM
Report as a plain number; the unit % is understood.

Report measured inhibition; entry is `CCCCCCCCCCCC[n+]1c(N)n(Cc2ccc(Cl)cc2)c2ccccc21`
17

Specify reported inhibition for the compound shown: `CN1CCN(CCCCCCCCCCCC[n+]2c(N)n(Cc3ccccc3)c3ccccc32)CC1`
35

Answer with the recorded inhibition of `NCCCCCC[n+]1c(N)n(Cc2ccccc2)c2ccccc21` only.
12

Please report inhibition for the following compound: `CCCCCCCCCCCC[n+]1c(N)n(CCc2ccccc2)c2ccccc21`
0

Please supply the value of reported inhibition for the item `Nc1n(Cc2ccccc2)c2ccccc2[n+]1CCCCCCCCCCC(=O)[O-]`
2

Give me measured inhibition, please, for this compound: `NCCC[n+]1c(N)n(Cc2ccccc2)c2ccccc21`
18

Indicate the recorded inhibition value for this compound: `Nc1n(Cc2ccccc2)c2ccccc2[n+]1CCCc1ccccc1`
11

Supply reported inhibition belonging to this compound: `Nc1n(Cc2ccccc2)c2ccccc2[n+]1Cc1ccccc1`
13

Quote inhibition reported for `CCCCCCCCCCCC[n+]1c(N)n(Cc2ccc(OC)cc2)c2ccccc21` please.
34

Recall and state the measured inhibition for `Nc1n(Cc2ccccc2)c2ccccc2[n+]1CCCCCC(=O)[O-]` .
3

Given the compound `Nc1n(Cc2ccccc2)c2ccccc2[n+]1CCCCCNCc1ccccc1` , write its reported inhibition.
12

Note down inhibition recorded for `CCCCCCCCCCCC[n+]1c(N)n(CCCc2ccccc2)c2ccccc21`
38

Determine its reported inhibition: `CC(C)(C)OC(=O)NCCCCCC[n+]1c(N)n(Cc2ccccc2)c2ccccc21`
9

Supply recorded inhibition for `Nc1n(Cc2ccccc2)c2ccccc2[n+]1CCCCCCCCCCCCN1C(=O)c2ccccc2C1=O` here.
40

Retrieve inhibition measured for `CCCCC[n+]1c(N)n(Cc2ccccc2)c2ccccc21` and print it.
12

Quickly give me recorded inhibition for `CCCCCCCC[n+]1c(N)n(Cc2ccccc2)c2ccccc21`
9

Supply recorded inhibition for `Nc1n(Cc2ccccc2)c2ccccc2[n+]1CCCCCCO` here.
13

Fill in inhibition for record `NCCCCCCCCCCC[n+]1c(N)n(Cc2ccccc2)c2ccccc21`
24

Return inhibition (reported value) for this compound: `Nc1n(Cc2ccccc2)c2ccccc2[n+]1CCCCCCCCCCCCNC1CCCCC1`
11

Please supply the value of reported inhibition for the item `Nc1n(Cc2ccccc2)c2ccccc2[n+]1CCCCCCCCCCCO`
9

Quickly give me recorded inhibition for `Nc1n(Cc2ccccc2)c2ccccc2[n+]1CCCCCN1CCN(c2ccccc2)CC1`
13

Please report the measured inhibition for `CCCCCCCCCCCC[n+]1c(N)n(Cc2ccc(Cl)c(Cl)c2)c2ccccc21`
9

For `NC(=O)CCCCC[n+]1c(N)n(Cc2ccccc2)c2ccccc21` , write its inhibition.
3

Using known records, supply inhibition for `Nc1n(Cc2ccccc2)c2ccccc2[n+]1CCCCCCCCCCCCN1CCOCC1`
31

Please give the documented inhibition of `Nc1n(Cc2ccccc2)c2ccccc2[n+]1CCCCCCCCN1CCN(c2ccccc2)CC1`
33

Tell me inhibition reported for `Nc1n(Cc2ccccc2)c2ccccc2[n+]1CCCCCCCCCCCCNCc1ccccc1`
50

Consider the compound `CCCCCCCCCCCC[n+]1c(N)n(Cc2ccc(C)cc2)c2ccccc21` . State its measured inhibition.
0

// Input: `Nc1n(Cc2ccccc2)c2ccccc2[n+]1CCCCCCCCCCCCN1CCN(c2ccccc2)CC1` . Output its inhibition only.
41

Give the reported value of inhibition for this record: `Nc1n(Cc2ccccc2)c2ccccc2[n+]1CCCO`
4

Output inhibition of `Nc1n(Cc2ccccc2)c2ccccc2[n+]1CC(=O)[O-]`
2

Give recorded inhibition. `CNC(=O)C[n+]1c(N)n(Cc2ccccc2)c2ccccc21`
7

Determine from records and report inhibition for `CC(C)(C)OC(=O)NCCC[n+]1c(N)n(Cc2ccccc2)c2ccccc21`
18

Return reported inhibition. Input compound: `Nc1n(Cc2ccccc2)c2ccccc2[n+]1CC(=O)Nc1ccccc1`
13

Indicate its recorded inhibition; the compound in question is `Nc1n(Cc2ccccc2)c2ccccc2[n+]1CCCCCCCCCCCCNc1ccccc1`
46

Supply measured inhibition of `CCC[n+]1c(N)n(Cc2ccccc2)c2ccccc21` in your reply.
13

Identify measured inhibition corresponding to `CC(C)(C)OC(=O)NCCCCCCCCCCC[n+]1c(N)n(Cc2ccccc2)c2ccccc21`
14
